- measured_on: SCD5 (Homo sapiens, UniProt Q86SK9)
- Construct: host or cells: S. cerevisiae ole1Δ strain (W303 pdr1Δ pdr3Δ background), plasmid pRS316 with TDH3 promoter and CYC1 terminator
- Sequence (Q86SK9 whole entry): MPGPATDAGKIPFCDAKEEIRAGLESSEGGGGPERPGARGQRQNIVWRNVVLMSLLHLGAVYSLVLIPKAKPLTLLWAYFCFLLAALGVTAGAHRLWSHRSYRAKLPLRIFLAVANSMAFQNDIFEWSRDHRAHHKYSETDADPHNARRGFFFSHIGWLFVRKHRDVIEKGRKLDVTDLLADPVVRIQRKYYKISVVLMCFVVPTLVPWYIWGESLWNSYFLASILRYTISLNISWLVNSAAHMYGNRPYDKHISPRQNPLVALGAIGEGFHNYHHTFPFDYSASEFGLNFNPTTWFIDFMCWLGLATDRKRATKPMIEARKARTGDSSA
- method_notes: Growth inhibition of humanized yeast strain expressing SCD5 as sole desaturase
- Type: cell-based
- experimental_setup: humanized yeast strain expressing SCD5
# reported SCD5 % Max Inhibition; entries follow
Report only the number, with the unit % understood.

Some solved cases for reference:
Lookup: Item CCOc1cnc(-c2noc(C3CCN(C(=O)C4CC(=O)N(c5ccccc5)C4)CC3)n2)cc1OC (stereo not drawn) has what recorded SCD5 % Max Inhibition?
Found: 32.21

Lookup: Now consider `COc1ccc(-c2noc(C3CCN(C(=O)CNC(C)=O)CC3)n2)cc1OC` .
Found: 72.35

Others:
Lookup: Returns the measured SCD5 % Max Inhibition for the input compound. Input: `CCc1nn(C)c2cc(-c3noc(C4CCN(C(=O)CNC(=O)c5ccccc5)CC4)n3)ccc12`
Found: 14.7
